molecular target: hPXR (Homo sapiens (Human), UniProt O75469); assay: cell-based hPXR antagonistic assay; conditions: read-out: Antagonist (% inhibition at 10 μM)
Sequence (O75469 whole entry): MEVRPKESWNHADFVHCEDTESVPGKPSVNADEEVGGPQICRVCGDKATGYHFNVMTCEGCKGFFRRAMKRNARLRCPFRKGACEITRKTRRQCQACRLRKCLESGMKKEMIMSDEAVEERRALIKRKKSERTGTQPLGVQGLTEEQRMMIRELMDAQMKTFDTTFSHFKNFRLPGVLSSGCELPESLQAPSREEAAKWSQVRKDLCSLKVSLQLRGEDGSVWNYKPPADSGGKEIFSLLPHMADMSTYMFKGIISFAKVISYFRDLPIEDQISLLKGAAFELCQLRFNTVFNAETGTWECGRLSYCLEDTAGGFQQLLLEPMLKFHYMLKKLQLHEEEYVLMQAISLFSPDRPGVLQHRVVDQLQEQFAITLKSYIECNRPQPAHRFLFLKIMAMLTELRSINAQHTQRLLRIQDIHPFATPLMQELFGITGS
READOUT_LABEL: inhibition at 10 µM (%)

I. COc1ccc(Cl)cc1-n1nnc(C(=O)Nc2cc(N)cc(C(C)(C)C)c2)c1C
II. CCC[C@H](CC)Oc1ccc(C(C)(C)C)cc1NC(=O)c1nnn(-c2cc(OC)c(F)cc2OC)c1C
// compare measured inhibition at 10 µM, left I , right II , return larger Reply briefly: the label of your chosen item.
II
(II: 104%, I: 56%)

a. COc1ccc(OC)c(-n2nnc(C(=O)Nc3cc(C)ccc3OC)c2C)c1
b. COc1ccc(OC)c(-n2nnc(C(=O)Nc3cc(NC(=O)CCC(=O)O)cc(C(C)(C)C)c3)c2C)c1
Higher inhibition at 10 µM: a or b ? Lab log: write the label of the selected item as the result.
a

Entry source: patent US20250282736A1
